target: T532C-Cdc48 (Saccharomyces cerevisiae, UniProt P25694, T532C); test: In vitro ATP hydrolysis (malachite green ATPase assay), T532C-Cdc48
Sequence (P25694 whole entry T532C): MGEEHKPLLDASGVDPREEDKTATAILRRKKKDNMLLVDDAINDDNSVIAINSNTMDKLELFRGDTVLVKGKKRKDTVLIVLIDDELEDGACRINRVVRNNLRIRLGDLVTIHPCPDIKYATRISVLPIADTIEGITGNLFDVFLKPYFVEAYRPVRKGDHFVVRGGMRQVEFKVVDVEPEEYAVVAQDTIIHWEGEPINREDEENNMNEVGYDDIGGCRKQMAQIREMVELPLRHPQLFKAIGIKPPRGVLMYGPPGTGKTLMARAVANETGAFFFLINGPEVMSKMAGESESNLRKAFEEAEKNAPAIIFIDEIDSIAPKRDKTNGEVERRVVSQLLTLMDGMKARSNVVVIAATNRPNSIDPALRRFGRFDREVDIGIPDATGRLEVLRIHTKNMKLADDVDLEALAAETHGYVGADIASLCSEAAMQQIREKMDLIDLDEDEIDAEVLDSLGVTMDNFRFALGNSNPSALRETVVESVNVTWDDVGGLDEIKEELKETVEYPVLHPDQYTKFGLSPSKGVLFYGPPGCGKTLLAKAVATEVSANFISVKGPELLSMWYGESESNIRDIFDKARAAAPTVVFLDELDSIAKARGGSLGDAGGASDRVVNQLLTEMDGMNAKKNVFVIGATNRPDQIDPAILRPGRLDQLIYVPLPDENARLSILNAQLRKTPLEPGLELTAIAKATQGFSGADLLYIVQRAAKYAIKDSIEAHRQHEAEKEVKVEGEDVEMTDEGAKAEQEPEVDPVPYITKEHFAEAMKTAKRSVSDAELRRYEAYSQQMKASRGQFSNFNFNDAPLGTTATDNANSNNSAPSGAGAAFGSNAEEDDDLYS
pIC50: −log10 of the molar value.
measure name: pIC50

- molecule: "C=CC(=O)Nc1ncnc2c1c(-c1ccccc1)nn2C(C)(C)C [Compound 2]"
  measure name: "pIC50"
  result: 4.85
- molecule: "C=CC(=O)N(C(=O)C=C)c1ncnc2c1c(-c1ccc3ccccc3c1)nn2C(C)(C)C [Compound 7]"
  measure name: "pIC50"
  result: 4.66
- molecule: "C=CC(=O)N(C(=O)C=C)c1ncnc2c1c(-c1ccccc1)nn2C(C)(C)C [Compound 3]"
  measure name: "pIC50"
  result: 4.59
- molecule: "CC(C)(C)n1nc(-c2ccccc2)c2c(NC(=O)CCl)ncnc21 [Compound 4]"
  measure name: "pIC50"
  result: 4.46
- molecule: "C=CC(=O)Nc1ncnc2c1c(-c1ccc3ccccc3c1)nn2C(C)(C)C [Compound 6]"
  measure name: "pIC50"
  result: 4.62

###

molecular target: Yeast Cdc48 (Saccharomyces cerevisiae, UniProt P25694)
Sequence (P25694 whole entry): as the sequence (P25694 whole entry T532C) above, with C532T counted along it

- structure: "C=CC(=O)Nc1ncnc2c1c(-c1ccccc1)nn2C(C)(C)C"
  IC50: "376 µM"

###

molecular target: Hamster NSF (Cricetulus griseus, UniProt P18708)
Sequence (P18708 whole entry): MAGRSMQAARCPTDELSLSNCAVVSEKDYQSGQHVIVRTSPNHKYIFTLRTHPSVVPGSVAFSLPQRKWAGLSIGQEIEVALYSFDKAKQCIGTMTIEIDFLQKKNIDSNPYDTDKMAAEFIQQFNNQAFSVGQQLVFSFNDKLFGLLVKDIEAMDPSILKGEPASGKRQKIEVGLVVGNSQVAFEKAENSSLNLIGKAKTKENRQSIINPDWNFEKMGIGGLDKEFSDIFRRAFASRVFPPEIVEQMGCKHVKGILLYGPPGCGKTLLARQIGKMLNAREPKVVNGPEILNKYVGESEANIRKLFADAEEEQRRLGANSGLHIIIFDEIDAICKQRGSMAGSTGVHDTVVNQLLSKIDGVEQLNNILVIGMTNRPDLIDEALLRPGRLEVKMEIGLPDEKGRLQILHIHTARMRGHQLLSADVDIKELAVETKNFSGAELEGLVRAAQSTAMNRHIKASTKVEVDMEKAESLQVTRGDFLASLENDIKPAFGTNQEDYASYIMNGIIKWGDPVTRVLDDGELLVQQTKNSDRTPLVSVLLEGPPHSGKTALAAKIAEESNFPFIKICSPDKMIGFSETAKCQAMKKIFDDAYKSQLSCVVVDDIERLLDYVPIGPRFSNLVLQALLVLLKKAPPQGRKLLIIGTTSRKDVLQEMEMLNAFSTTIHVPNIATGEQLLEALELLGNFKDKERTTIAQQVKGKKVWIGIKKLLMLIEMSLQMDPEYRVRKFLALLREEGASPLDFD
pIC50: −log10 of the molar value.

- compound: "C=CC(=O)Nc1ncnc2c1c(-c1ccccc1)nn2C(C)(C)C [Compound 2]"
  target of assay: "Hamster NSF (Cricetulus griseus, UniProt P18708)"
  pIC50: 3.98

###

tested on: HeLa
Below: a set of entries, each annotated with reported log10 of GI50.
measure name: log10 of GI50 (log10 of the value in nM)

- structure: "C=CC(=O)Nc1ncnc2c1c(-c1ccccc1)nn2C(C)(C)C"
  result: 2.60
- structure: "CC(C)(C)n1nc(-c2ccccc2)c2c(N)ncnc21"
  result: 3.30
- structure: "C=CC(=O)Nc1ncnc2c1c(-c1ccc3ccccc3c1)nn2C(C)(C)C"
  result: 3.08
- structure: "CC(C)(C)n1nc(-c2ccc3ccccc3c2)c2c(N)ncnc21"
  result: 3.00
- structure: "C=CC(=O)N(C(=O)C=C)c1ncnc2c1c(-c1ccc3ccccc3c1)nn2C(C)(C)C"
  result: 3.26
- structure: "C=CC(=O)N(C(=O)C=C)c1ncnc2c1c(-c1ccccc1)nn2C(C)(C)C"
  result: 3.72

###

biological target: wild type murine p97 (Mus musculus, UniProt Q01853)
Sequence (Q01853 whole entry): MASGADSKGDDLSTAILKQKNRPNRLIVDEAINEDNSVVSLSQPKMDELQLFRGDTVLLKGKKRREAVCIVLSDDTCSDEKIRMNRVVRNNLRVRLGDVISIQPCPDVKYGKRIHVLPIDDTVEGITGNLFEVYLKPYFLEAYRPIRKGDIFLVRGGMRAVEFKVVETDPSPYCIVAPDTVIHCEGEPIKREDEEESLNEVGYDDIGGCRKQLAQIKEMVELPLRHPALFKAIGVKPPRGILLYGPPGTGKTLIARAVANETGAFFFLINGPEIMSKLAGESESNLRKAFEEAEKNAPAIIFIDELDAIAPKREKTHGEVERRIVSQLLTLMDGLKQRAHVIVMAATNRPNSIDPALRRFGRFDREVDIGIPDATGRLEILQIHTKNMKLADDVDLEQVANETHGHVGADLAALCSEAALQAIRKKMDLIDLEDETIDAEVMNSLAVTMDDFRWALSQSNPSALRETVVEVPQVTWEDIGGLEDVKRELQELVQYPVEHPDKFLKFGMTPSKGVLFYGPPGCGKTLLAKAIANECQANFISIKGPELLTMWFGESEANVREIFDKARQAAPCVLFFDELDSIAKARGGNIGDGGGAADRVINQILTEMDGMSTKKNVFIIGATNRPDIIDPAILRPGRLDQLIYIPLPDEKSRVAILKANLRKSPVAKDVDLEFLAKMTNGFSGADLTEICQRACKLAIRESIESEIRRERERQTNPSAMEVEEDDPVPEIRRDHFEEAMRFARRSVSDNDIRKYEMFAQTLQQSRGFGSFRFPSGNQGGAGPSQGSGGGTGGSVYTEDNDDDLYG

- compound: "C=CC(=O)Nc1ncnc2c1c(-c1ccc3ccccc3c1)nn2C(C)(C)C [Compound 6]"
  result comparator: "="
  IC50 [µM]: 3
- compound: "CC(C)(C)n1nc(-c2ccccc2)c2c(NC(=O)CCl)ncnc21 [Compound 4]"
  result comparator: "="
  IC50 [µM]: 4.5
- compound: "CC(C)(C)n1nc(-c2ccccc2)c2c(N)ncnc21 [Compound 1]"
  result comparator: ">"
  IC50 [µM]: 100
- compound: "C=CC(=O)N(C(=O)C=C)c1ncnc2c1c(-c1ccccc1)nn2C(C)(C)C [Compound 3]"
  result comparator: "="
  IC50 [µM]: 1.1
- compound: "C=CC(=O)N(C(=O)C=C)c1ncnc2c1c(-c1ccc3ccccc3c1)nn2C(C)(C)C [Compound 7]"
  result comparator: "="
  IC50 [µM]: 1.3
